Item-by-item account of inhibition at 1 µM
Target: panel of 255 wild-type kinases (Homo sapiens, UniProt P42684)
Sequence (P42684 whole entry): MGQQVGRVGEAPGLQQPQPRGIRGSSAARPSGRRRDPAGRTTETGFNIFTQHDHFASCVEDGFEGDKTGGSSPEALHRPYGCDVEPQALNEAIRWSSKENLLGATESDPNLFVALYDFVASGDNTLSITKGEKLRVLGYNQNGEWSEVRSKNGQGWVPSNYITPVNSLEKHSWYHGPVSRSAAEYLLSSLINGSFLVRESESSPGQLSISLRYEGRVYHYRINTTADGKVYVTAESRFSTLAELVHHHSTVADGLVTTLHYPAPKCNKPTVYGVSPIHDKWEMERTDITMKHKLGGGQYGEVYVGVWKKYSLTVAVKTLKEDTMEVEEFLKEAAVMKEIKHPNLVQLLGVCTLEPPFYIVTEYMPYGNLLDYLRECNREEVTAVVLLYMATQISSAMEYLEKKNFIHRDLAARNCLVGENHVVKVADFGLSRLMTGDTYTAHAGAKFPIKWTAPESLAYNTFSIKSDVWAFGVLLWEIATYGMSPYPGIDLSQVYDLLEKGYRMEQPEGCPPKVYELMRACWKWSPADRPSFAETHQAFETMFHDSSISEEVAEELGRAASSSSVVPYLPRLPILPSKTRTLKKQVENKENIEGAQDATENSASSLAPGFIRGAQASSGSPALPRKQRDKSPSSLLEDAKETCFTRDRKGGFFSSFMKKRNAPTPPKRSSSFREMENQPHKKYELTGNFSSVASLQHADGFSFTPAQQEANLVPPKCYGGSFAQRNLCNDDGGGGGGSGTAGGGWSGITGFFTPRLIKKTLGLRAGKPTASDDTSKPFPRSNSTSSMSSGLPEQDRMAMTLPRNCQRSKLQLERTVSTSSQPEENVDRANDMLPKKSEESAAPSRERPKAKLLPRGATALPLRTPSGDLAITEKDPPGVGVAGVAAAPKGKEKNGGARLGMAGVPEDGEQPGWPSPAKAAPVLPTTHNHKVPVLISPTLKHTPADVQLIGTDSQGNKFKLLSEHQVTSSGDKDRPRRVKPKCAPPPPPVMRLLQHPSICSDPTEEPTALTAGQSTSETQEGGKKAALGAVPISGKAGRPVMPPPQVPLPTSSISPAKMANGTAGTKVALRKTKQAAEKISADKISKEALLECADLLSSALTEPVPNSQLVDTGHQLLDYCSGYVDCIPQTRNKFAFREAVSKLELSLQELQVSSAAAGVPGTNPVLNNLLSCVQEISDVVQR
Experiment: Kinase panel profiling at 1 µmol/L (MSA or IMAP), percentage inhibition
Assay type: biochemical
Conditions: ARG kinase assay; 1 µmol/L single concentration; read-out: %-inhibition ARG
READOUT_LABEL: inhibition at 1 µM (%)

>>> quantitative_result("C[C@H](Nc1ncnc2nc[nH]c12)c1cc2cccc(Cl)c2c(=O)n1-c1ccccc1 [duvelisib]")
0.877
>>> quantitative_result("FC(F)(F)c1ccc(CNc2ccc(Cc3c[nH]c4ncc(Cl)cc34)cn2)cn1 [pexidartinib]")
7
>>> quantitative_result("Cc1nc(NC(=O)N2CCC[C@H]2C(N)=O)sc1-c1ccnc(C(C)(C)C(F)(F)F)c1 [alpelisib]")
3.28
>>> quantitative_result("COc1ccc(CN2C3CC2CN(c2ccc(-c4cc(OCC(C)(C)O)cn5ncc(C#N)c45)cn2)C3)cn1 [selpercatinib]")
10
>>> quantitative_result("Cc1cc(Nc2ncnc3ccc(NC4=NC(C)(C)CO4)cc23)ccc1Oc1ccn2ncnc2c1 [tucatinib]")
3.73
>>> quantitative_result("COC(=O)N[C@@H](C)CNc1nccc(-c2cn(C(C)C)nc2-c2cc(Cl)cc(NS(C)(=O)=O)c2F)n1 [encorafenib]")
1.69
>>> quantitative_result("C=CC(=O)N1CCC([C@@H]2CCNc3c(C(N)=O)c(-c4ccc(Oc5ccccc5)cc4)nn32)CC1 [zanubrutinib]")
-3.68
>>> quantitative_result("CCN1CCN(c2ccc(Nc3cc(N(C)C(=O)Nc4c(Cl)c(OC)cc(OC)c4Cl)ncn3)cc2)CC1 [infigratinib]")
24
>>> quantitative_result("C[C@H]1Oc2cc(cnc2N)-c2c(nn(C)c2C#N)CN(C)C(=O)c2ccc(F)cc21 [lorlatinib]")
1.49
>>> quantitative_result("COc1cc2ncnc(Nc3ccc(F)c(Cl)c3)c2cc1NC(=O)/C=C/CN1CCCCC1 [dacomitinib]")
40
>>> quantitative_result("CCc1nc(C(N)=O)c(Nc2ccc(N3CCC(N4CCN(C)CC4)CC3)c(OC)c2)nc1NC1CCOCC1 [gilteritinib]")
61
